Target: T1, human EphB6 (Homo sapiens, UniProt O15197)
T1 construct: a protein of the extracellular region of each human Eph receptor fused with the SEAP protein and the His tag; made in house; host or cells: Expi293F cells
T1 sequence (O15197 32-594 limits assumed): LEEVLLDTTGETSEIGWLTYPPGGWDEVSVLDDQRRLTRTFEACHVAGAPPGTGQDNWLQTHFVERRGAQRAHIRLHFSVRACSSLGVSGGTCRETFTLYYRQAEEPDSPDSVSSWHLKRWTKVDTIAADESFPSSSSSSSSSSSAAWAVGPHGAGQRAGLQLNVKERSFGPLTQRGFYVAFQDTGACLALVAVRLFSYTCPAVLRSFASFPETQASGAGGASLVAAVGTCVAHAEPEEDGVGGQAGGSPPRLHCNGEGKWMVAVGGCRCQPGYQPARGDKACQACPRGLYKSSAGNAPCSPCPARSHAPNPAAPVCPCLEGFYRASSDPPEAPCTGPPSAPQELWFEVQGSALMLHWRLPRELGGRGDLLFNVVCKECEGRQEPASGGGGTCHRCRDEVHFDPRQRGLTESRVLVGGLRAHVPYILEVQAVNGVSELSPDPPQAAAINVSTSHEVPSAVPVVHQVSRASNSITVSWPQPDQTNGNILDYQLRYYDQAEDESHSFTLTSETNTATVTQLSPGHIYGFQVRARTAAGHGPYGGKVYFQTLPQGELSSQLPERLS
Experiment: Selectivity ELISA of humanized antibodies for human Eph receptor
Assay type: binding
Details: coated protein 1 nM
Source text: According to the method described in Example 7, a DNA sequence encoding the signal sequence and the extracellular region of each human Eph receptor (EphA1, EphA2, EphA3, EphA4, EphA5, EphA6, EphA7, EphA8, EphA10, EphB1, EphB2, EphB3, EphB4, and EphB6) was amplified by RT-PCR using tissue-derived total RNA and cloned into a pENTR1A vector (Invitrogen/Life Technologies) having a DNA sequence encoding SEAP protein and histidine tag. […]
Recorded measurements of hEphB6-SEAP-: absorbance at 450 nm, percentage with respect to hEphA4-SEAP-His as 100%, one per entry
Give the value in % but do not write % after it.

Molecule: 90 (antibody, V domains shown, constant regions without entry; synthetic humanized antibody light chain variable region sequence; synthetic humanized antibody heavy chain variable region sequence) VL: DIQMTQSPSSLSASVGDRVTITCRASENIYRNLAWYQQKPGKAPQLLLYAATNLADGVPSRFSGSGSGTDYTLTISSLQPEDFATYYCQHFWGTPWTFGQGTKVEIK VH: QVQLVQSGSELKKPGASVKVSCKASGYTFTDYSMHWVRQAPGQGLEWMGWINTETGEPTYADDFKGRFVFSLDTSVSTAYLQISSLKAEDTAVYYCARIPLYYYGSRYWYFDVWGQGTTVTVSS
Test Value: 5.2

Shifting focus to the molecule that follows.
Query string: Which hEphB6-SEAP-: absorbance at 450 nm, percentage with respect to hEphA4-SEAP-His as 100% is listed for 81 (antibody, V domains shown, constant regions without entry; synthetic humanized antibody light chain variable region sequence; synthetic humanized antibody heavy chain variable region sequence) VL: DIQMTQSPSSLSASVGDRVTITCRASENIYRNLAWYQQKPGKAPKLLLYAATNLADGVPSRFSGSGSGTDYTLTISSLQSEDFATYYCQHFWGTPWTFGQGTKVEIK VH: QVQLVQSGSELKKPGASVKVSCKASGYTFTDYSMHWVRQAPGQGLEWMGWINTETGEPTYAQGFTGRFVFSLDTSVSTAYLQISSLKAEDTAVYYCARIPLYYYGSRYWYFDVWGQGTTVTVSS ?
Result string: 5.0
